// values below are reported koff
biological target: T1, hK1 (human tissue kallikrein 1), recombinant (human, UniProt P06870 25-262); test: SPR
T1 construct: Expressed in P. pastoris from KLK1 cDNA and purified; enzymatically active; also called KLK1; Recombinant (Pichia) Kallikrein
Unit s⁻¹ implied. Number only.

Answered cases to consult:
Which koff value is on record for M0136-E12 (Fab, V domains shown) VH: EVQLLESGGGLVQPGGSLRLSCAASGFTFSNYSMQWVRQAPGKGLEWVSSIGPSGGRTWYADSVKGRFTISRDNSKNTLYLQMNSLRAEDTAVYYCARVGVWYGMDVWGQGTTVTVSS VL: DIQMTQSPSSLSASVGDRVTITCRASHVINIDLGWYQQKPGKAPKLLIYGASHLQRGVPSRFSGSGSGTVFTLTISGLQPEDFATYYCLQDSFYPRTFGQGTRLEIKR ?
0.00107

Which koff value is on record for M0107-F11 (Fab, V domains shown) VH: EVQLLESGGGLVQPGGSLRLSCAASGFTFSHYQMHWVRQAPGKGLEWVSSIRPSGGRTAYADSVKGRFTISRDNSKNTLYLQMNSLRAEDTAVYYCARVGVWYGMDVWGQGTTVTVSS VL: DIQMTQSPGTLSLSPGERATLSCRASQSVSGSYLAWYQQKPGQAPSLLIYGAYSRATGIPDRFSGSGSGTDFTLTISRLEPEDFAVYYCQHYGSSPRTFGGGTKVEIKR ?
0.0066

Now consider the entry below.
Which koff value is on record for M0106-D06 (Fab, V domains shown) VH: EVQLLESGGGLVQPGGSLRLSCAASGFTFSYYLMGWVRQAPGKGLEWVSSIGPSGGTTKYADSVKGRFTISRDNSKNTLYLQMNSLRAEDTAVYYCARRGLGAAFDYWGQGTLVTVSS VL: DIQMTQSPSSVSASVGDRVTITCRASQGISSWLAWYQQKPGKAPKLLIYAASSLQSGVPSRFSGSGSGTDFTLTISSLQPEDFATYYCQQANSFPYTFGQGTKLEIKR ?
0.019

Each recorded value in this set is attributed to patent US7329737.
